Source listed as patent US7291641B2.

Where a name gives a salt, the structure may show the parent alone.
A collection of compounds and their measured melting point

Consider the following illustrative entries.
COMPOUND	melting point
c1ccc(-c2c[nH]c([C@@H](Cc3c[nH]c4ccccc34)Nc3ncccn3)n2)cc1	138 to 140 °C
CCCCCCOC(=O)NCCc1nc(-c2ccc(-c3ccc(Br)cc3)cc2)c[nH]1	138 to 140 °C
CCCCOC(=O)NCCc1nc(-c2ccc(-c3ccc(C)cc3)cc2)c[nH]1	168.4 °C
CCCCOC(=O)NCCc1nc(-c2ccc(CC(C)C)cc2)c[nH]1	95.5 °C
Cn1cc(-c2ccccc2)nc1[C@H](N)Cc1c[nH]c2ccccc12 (as salt: hydrochloride)	206 to 210 °C

Complete the entry with melting point for CN(CC#N)Cc1nc(-c2cc(C(C)(C)C)c(O)c(C(C)(C)C)c2)cs1 150 to 156 °C

Complete the entry with melting point for CCCCCCC(N)c1nc(-c2ccccc2)c[nH]1 (racemic) (as salt: hydrochloride) 131 to 134 °C

Complete the entry with melting point for CCCCCCC(NCc1ccccc1)c1nc(-c2ccc(C#N)cc2)c[nH]1 (racemic) 188 to 189 °C

====

REPORTED_PROPERTY: melting point (°C)

COMPOUND	melting point, °C
Fc1ccc(-c2c[nH]c([C@@H](NC3CCCCC3)C3CCCCC3)n2)cc1F	182.3
FC(F)(F)c1cccc(-c2c[nH]c([C@@H](NCC3CCCCC3)C3CCCCC3)n2)c1 [Example 305]	143.9
CCCCOC(=O)NCCc1nc(-c2ccc(-c3ccc(F)cc3)cc2)c[nH]1	149.3

====

A collection of compounds and their measured melting point
Structures can show the parent of a compound that is named as a salt.

COMPOUND	melting point
CCCCC(NCc1ccccc1)c1nc(-c2ccccc2)c[nH]1 (racemic) [Example 186]	200 to 202 °C
CC(C)(C)c1cc(-c2c[nH]c([C@@H](N)C3CCCCC3)n2)cc(C(C)(C)C)c1O (as salt: hydrochloride) [Example 316]	222 to 228 °C
O=C(NCCc1nc(-c2ccc(F)cc2)c[nH]1)OCC1CCC1 [Example 286]	149 to 150 °C

Complete the entry with melting point for CC[C@H](NC(=O)OC(C)(C)C)c1nc(-c2ccc(-c3ccccc3)cc2)c[nH]1 [Example 194] 138 to 140 °C

Complete the entry with melting point for CN(Cc1nc(-c2ccccc2)c(-c2ccccc2)[nH]1)C(=O)OC(C)(C)C [Example 156] 170 to 172 °C

Complete the entry with melting point for CC(C)CCOC(=O)NCCc1nc(-c2ccc(-c3ccccc3)cc2)c[nH]1 [Example 380] 128 to 130 °C

Complete the entry with melting point for O=C(NCCc1nc(-c2ccc(N3CCCC3)cc2)c[nH]1)OCc1ccccc1 [Example 390] 122.4 °C

Complete the entry with melting point for NC1(c2nc(-c3ccccc3)c[nH]2)CCCCC1 (as salt: hydrochloride) 202 to 204 °C

Complete the entry with melting point for N[C@H](c1nc(-c2ccc(F)c(F)c2)c[nH]1)C1CCCCC1 (as salt: hydrochloride) [Example 258] 222 to 223 °C

Complete the entry with melting point for CCCCOC(=O)NCCc1nc(-c2ccc(-c3ccccc3Cl)cc2)c[nH]1 [Example 454] 99.7 °C

Complete the entry with melting point for CCCCCCC(NCc1ccc(OC)cc1)c1nc(-c2ccccc2)c[nH]1 (racemic) [Example 227] 126 to 128 °C

Complete the entry with melting point for CCCCCCC(N)c1nc(-c2ccc(C)cc2)c[nH]1 (racemic) (as salt: hydrochloride) [Example 184] 157 to 160 °C

Complete the entry with melting point for CCCCOC(=O)NCCc1nc(-c2ccc(CC)cc2)c[nH]1 [Example 450] 92.4 °C

Complete the entry with melting point for CCCCCCC(N)c1nc(-c2ccc(N(CC)CC)cc2)c[nH]1 (racemic) (as salt: hydrochloride) [Example 218] 192 °C

Complete the entry with melting point for CCCCCCC(NCc1ccccc1)c1nc(-c2ccc(-c3ccccc3)cc2)c[nH]1 (racemic) [Example 195] 100 to 102 °C

Complete the entry with melting point for CCCCCC(N)c1nc(-c2ccccc2)c[nH]1 (racemic) (as salt: hydrochloride) [Example 65] 146 to 148 °C
